# Test system: RARb:RXRa (NR concentration 270 nM, RXRa partner concentration 90 nM)
# test description: PBM binding z-score (relative to random genomic background probes); higher = stronger binding; sequences stand for … in GC…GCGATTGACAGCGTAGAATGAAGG
Label Met for high-side PBM binding z-score (at or above 1) and Not met for low-side PBM binding z-score (below it).

Here are 10 sequences together with their reported answers.
# sequence chain, answer label
data = [
    ("CATACAGGGTCAGCTGGGCCAGAGTAGGGACGGC", "Met"),
    ("CCTAGTTGGTCAAGGTCAAACACGCTATAGGTAC", "Met"),
    ("GCTAGCAGGCCATTTGGGGCACTCAATGACGGGC", "Not met"),
    ("CGGCCAAGGTCAATGCTAGGTCAGTGAAAGCATT", "Met"),
    ("AGAACCAGGGCACGCTGAGTTGATAGCAGAGTAG", "Met"),
    ("TAATATAGGTAAATGCTAGGTGAAAGTCCGATCT", "Not met"),
    ("CGAACTAGGTCAGGACAGGACAGTGAAGGATGAT", "Met"),
    ("CCTACTGGGCCATTCTGAGGTCATTGATCATATG", "Met"),
    ("CCTGCTAGCTCAATGGTCAGCTAAAGCAGCTCGC", "Not met"),
    ("AGAATGTGGTTACCAAAGATCAGGGAAACGCTTG", "Not met"),
]

[ask] Is PBM binding z-score for AAACCAAGGTGATCGTGAGGTCGTTGATACTAAC at or above 1?
[reply] Met

[ask] Is reported PBM binding z-score greater than or equal to 1 here: CCTCGGAGGACAGAAGGACAGAGCTGTCCGCTTT
[reply] Not met

###

# Test system: PPARg:RXRa 90nM:30nM, anti-RXR (NR concentration 90 nM, RXRa partner concentration 30 nM)
# test description: PBM binding z-score (relative to random genomic background probes); higher = stronger binding; sequences stand for … in GC…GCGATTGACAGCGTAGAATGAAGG
Kindly supply the reported PBM binding z-score values for the records listed here.
Numbers only.

# sequence chain, study system, quantity kind, readout value
records = [
    ("AGATTGAGGTTATTAAGATCAGGGAATTGCGGTC", "PPARg:RXRa 90nM:30nM, anti-RXR (NR concentration 90 nM, RXRa partner concentration 30 nM)", "PBM binding z-score", 1.17),
]

I would be grateful if you could provide PBM binding z-score for each of the following entries.
1. CCTATTGGGCCAAGGTCATTGATCAGTCAAAGCA
2. CTCGAAGGGTCGGTTGAGGTGAGTATACGGATAA
3. TCATATAGGTAAACAGGAGAAAGTCCGTAAGTTA
4. AGAATGAGGTTACCAAAGATAAGGGAAACGCTTG

[reply]
1: 3.21; 2: 0.0401; 3: 3.07; 4: 1.9

Give PBM binding z-score for each listed item.
1. CCTACTGGACCACGAAAGGTCATTGATTCAGTGA
2. ATCTCTAGGTAAAGTTCCGTGAAAGATCGATAGA
3. CTCGAAAGGTCGGTTGAGATGAGTATACGGATAA
4. TTACCAAGGTGAAAGGTCGTGGATGCACGCCTTG
5. GATTGTAGATCAAGGTTAAGAAAGACTAAGCTAA

[reply]
1. 2.9
2. 0.543
3. 0.615
4. 8.54
5. 2.28

Provide the reported PBM binding z-score of each entry below, same order.
1. AGAACGAGGGCACGCTGAGTTGATAACAGAGTAG
2. CGTCCAAGGTCAAGGTCAGTAAAAGAGACTCGAA

[reply]
1.14
4.87

###

Record form. Attribute: PBM binding z-score. Fill in for each entry.
# Tested on: PPARg:RXRa 270nM:90nM, anti-RXR (NR concentration 270 nM, RXRa partner concentration 90 nM)
# test description: PBM binding z-score (relative to random genomic background probes); higher = stronger binding; sequences stand for … in GC…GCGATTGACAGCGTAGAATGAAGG
Answers are plain numbers.

Record excerpt, results attached:
# sequence chain, PBM binding z-score
measured = [
    ("TCTATTAGTTGAAGGGCAACTGACGAGTCCGTTT", 2.28),
    ("CATACAGGGTCAGCTCGGCCAGAGTAGGGACGGC", 2.64),
]

Give measured PBM binding z-score for every item shown.
1. CGAACCAGGTCATTGACAGGACAGTGAATAGTAA
2. CCTGCTAGGTCAATGGTCAGCTTAAGCAGCTCGC
3. CGTCCAAGGTCAAATGTCAGTGAAGAGATGACGG
4. ATTCAAAGTTCATCTAGGTAACGTAAGATATGCT

[reply]
[4.07, 5.21, 6.37, 4.51]

Please report PBM binding z-score for every entry that follows.
1. CGTCCAAAGTCATAGGAGGTCAGTGAAGACAGAT
2. CCTTACGGGTCACGATGTTATAGCACGACGAGCG
3. TGCATGAGGTTAAAGATCAGGGAACGTGGCGTCG
4. CCTTACGGCTCACTCCAGGTTATAGCATCGGAGT
5. CCAGACAGGTGAGAAGGAAACTCAGCCTCGATTA

[reply]
0.912
5.77
4.6
-0.277
0.482

The reported value for ATATGTAGGTTACATCCGGGGCATTCAGGCTATG in terms of PBM binding z-score is 4.28

###

# System: PPARg:RXRa 90nM:30nM, anti-RXR (NR concentration 90 nM, RXRa partner concentration 30 nM)
# test description: PBM binding z-score (relative to random genomic background probes); higher = stronger binding; sequences stand for … in GC…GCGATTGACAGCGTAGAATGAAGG
Label label 1 when PBM binding z-score is at or above 5; otherwise label label 0.

# sequence chain, answer label
rows = [
    ("GCTTACGGGTCAAAGGTTTTAGCATGAATAGAAT", "label 1"),
    ("ATATGTAGGTTAAGGGTCATTCACGTTGGTTCGC", "label 1"),
    ("CGAACTAGGTCAAGGACATTGAATCTCCGCACGC", "label 1"),
    ("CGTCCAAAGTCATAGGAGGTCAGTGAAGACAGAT", "label 0"),
    ("TCGAGTAGGTTAGGGCCATTCAGAATGGCGTCGA", "label 0"),
]

Here is another sequence to look at.
[ask] Identify whether the reported PBM binding z-score of the following sequence is 5 or greater: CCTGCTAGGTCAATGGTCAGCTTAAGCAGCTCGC
[reply] label 0

###

# System: PPARa:RXRa (NR concentration 270 nM, RXRa partner concentration 90 nM)
# test description: PBM binding z-score (relative to random genomic background probes); higher = stronger binding; sequences stand for … in GC…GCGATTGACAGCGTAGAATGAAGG
quantity kind: PBM binding z-score
Give bare numbers.

# sequence chain, study system, readout value
measured = [
    ("CGTCAAAGTTCAACTAAGGTAACGTACAGCACGC", "PPARa:RXRa (NR concentration 270 nM, RXRa partner concentration 90 nM)", 5.25),
    ("GCGACTGGGGCATCACCAGGTTACCATAACTTAA", "PPARa:RXRa (NR concentration 270 nM, RXRa partner concentration 90 nM)", 1.02),
]

Please give PBM binding z-score for each item listed below.
1. CGAACGAGGGCATGAGTTGATATCAAATGCCGAT
2. TCAGACAGGTGAAGTTAACTCAGGTACGCAGTCG
3. TAGCCTAGGTCATTGGGCCAGTTTAGTACGCATC
4. AGAATGAGCTTAAGATCAGGGAAACAGAATACAT
5. TCTTTTAGTTGAAGGGCAACCGACGAGTCCGTTT
6. TCTGCTAGGTCAACGATGGTCAGCTGATCTGCTA
7. ATCTCTAGTTAACCAAGTTCAGTGAATGCCGAAC
8. ACTATTAGTTGACTAAGGGCAACCGATACGACGC

[reply]
[1.59, 1.17, 3.88, -0.434, 1.16, 3.35, 0.492, 0.573]

Report PBM binding z-score for every entry below.
1. ATCGAAAGGTCGTGAGGTGAGAATACAGAAAGGC
2. ACTGACGGGTCAACGAGGTTATAGCACGCGTATA

[reply]
5.61
5.03

###

# Tested on: VDR homodimer (NR concentration 270 nM)
# test description: PBM binding z-score (relative to random genomic background probes); higher = stronger binding; sequences stand for … in GC…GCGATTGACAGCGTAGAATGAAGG
quantity kind: PBM binding z-score
One number for each entry.

# sequence chain, study system, quantity kind, readout value
data = [
    ("TCGAGTAGGTTACCAACGGGGCATTCAGCTTTCT", "VDR homodimer (NR concentration 270 nM)", "PBM binding z-score", -0.578),
    ("GCTGCTAGGTCAAGTTGGTCAGCTAACGGGTACG", "VDR homodimer (NR concentration 270 nM)", "PBM binding z-score", 0.704),
    ("CCGACTGGCGCATAAGGTTACCATAAGCCAGCCC", "VDR homodimer (NR concentration 270 nM)", "PBM binding z-score", 0.005),
    ("CTCGAAAGGTCGGTTGAGGTGAGGATACGGATAA", "VDR homodimer (NR concentration 270 nM)", "PBM binding z-score", 0.231),
    ("TCGAGTAGGTTAGGGGCAATCAGAATGGCGTCGA", "VDR homodimer (NR concentration 270 nM)", "PBM binding z-score", 0.267),
]

Batch of 5 sequences: report PBM binding z-score for each.
1. ACTTACGGGTCAACGAGGTTATCGCACGCGTATA
2. GCGACTGGGGCATCAGCAGGTAACCATAACTTAA
3. ATCTCTAGGTAACGAAGTTCAGTGAATGCCGAAC
4. CGAACTAGGTCATTGACAGGACAGTGACTAGTAA
5. TGAATGAGGTTAAAGATCAGGGTACGTGGCGTCG

[reply]
1. 4.34
2. -0.668
3. 1.27
4. 1.07
5. 1.25

Hello, I would appreciate it if you could give PBM binding z-score for each entry below.
1. CCAAACAGGTGAGAAGGTAACTCAGCCTCGATTA
2. ATACCAAGGTGATCGTGAGGTAGTTGATACTAAC
3. ACAGACAGGTGATGAAGGAAACTCAGGCTATCAT
4. CAAACTAGGTCACCGGAAGGTCTAAGTCCGCATG
5. TTACCAAGCTGAGCTGAGGTCGTTGATCCAACTC

[reply]
1: -0.08; 2: 0.0713; 3: -0.33; 4: 1.68; 5: 0.915

Please look at the items below and tell me PBM binding z-score for each one, in order.
1. CCGCCTGGGGCATAAGGTTACCATAAGCCAGCCC
2. CAGCCTAGGTCAGGGCCAGTGTAGGAGGAACGTT
3. CAAACTACGTCAAGAGGTCAAAGTCCGCTTCCCG
4. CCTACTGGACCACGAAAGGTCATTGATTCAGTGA
5. TCTAGTTGGTCACGGAGGTCACATACGACGGGTA
6. ATATGTAGGTTAACGGTCATTCAGGTTGGTTCGC
7. CCGAGTAGGTTATGGGGCCTTCAGGCAACGGTGA

[reply]
-0.126
-0.169
4.48
2.68
2.84
1.84
0.0348

Below is a list of sequences. For each, state its recorded PBM binding z-score.
1. ATATGTAGGTTAAGGGTCATACAGGTTGGTTCGC
2. AATCAAAGTTCACTAGGTAACGTAAGATTCAGCT
3. ATAGAAAGGTCGACGAGGTGAGTATACACCGTTT
4. CTCGAAAGGTCGGCTGAGGTGAGTATACGGATAA

[reply]
4.2
3.46
1.1
0.549
